Assay: NCI Yeast Anticancer Drug Screen. Data for the mlh1 rad18 strain (AID 175)
Details: S. cerevisiae mlh1 rad18 strain growth inhibition; at 50.0 µM (retest, dose inferred, filed as 5.0)
The panel holds about 79,000 compounds, 15% with a hit somewhere; the sample as a whole holds those more often. Active and inactive are the calls of the source. No stated cut-off is given here; in the data, active means growth inhibition above about 70%; inactive means the rest.
Permitted responses: label 1 for active, label 0 for inactive

{"Compound": "O=c1[nH]c2ccccc2c2oc3ccccc3c12", "Assigned label": "label 1"}
{"Compound": "Brc1cccc[n+]1Cc1cc2ccccc2c2ccccc12", "Assigned label": "label 1"}
{"Compound": "Clc1ccccc1C(Cc1c(Cl)cccc1Cl)Cn1ccnc1 (stereo unspecified)", "Assigned label": "label 1"}
{"Compound": "CN(C)CCCNc1c(C#N)[n+]([O-])c2cc(Cl)ccc2[n+]1[O-]", "Assigned label": "label 1"}
{"Compound": "CCC1(O)c2ccccc2C(O)(CC)c2ccccc21 (stereo unspecified)", "Assigned label": "label 0"}

Please examine the following record next.
Each compound tested received a call. Report the one for CC(=O)Oc1ccc(N2C(=O)C=CC2=O)cc1 . label 1
